Assay: chemical genetic growth profiling, strain panel (AID 1159580);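 further: tested at 20 µM; growth read once vehicle control cultures reached saturation at 30 °C; 1 = growth at the plate median or of vehicle wells; lower values mean less growth of the strain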
Conditions: S. cerevisiae deletion strains, growth OD, strain TSCII, hits give low values
About 2,000 (36%) of roughly 5,500 compounds were called active. Another 18% or so got no clear call; they are omitted. This is one part of the list.
Reported normalized growth values follow for various molecules
// return a plain number; no unit text

MOLECULE | normalized growth
O=C(Nc1ccc(OC(F)(F)F)cc1)OC1CN(C(c2ccccc2)c2ccccc2)C1 | 1.01
CC(C)(C)c1ccc(C(=O)Nc2ccc(C(F)(F)F)cc2)s1 | 0.983
CC(C)(C)c1ccc(C(=O)NNc2c(Cl)cccc2Cl)cc1 | 0.972
Cc1cccc(NC(=S)NNC(=O)CSCc2cccc3ccccc23)c1 | 0.988
Cc1onc(-c2c(F)cccc2Cl)c1C(=O)NNc1cc(Cl)cc(Cl)c1 | 0.986

Qu. Record request: normalized growth value, item OC(CN1CCN(c2nc3ccc(Cl)cc3s2)CC1)Cn1ccc2ccccc21 (centres undefined)
Ans. 0.995

Qu. Item O=[N+]([O-])c1ccc2oc(C(O)c3ccc(-c4ccccc4)cc3)cc2c1 (centres undefined) has what recorded normalized growth?
Ans. 0.987

Qu. # get_value(readout='normalized growth', item= O=C(NNc1ccc(I)cc1)c1cc(Cl)cc(Cl)c1 )
Ans. 0.946

Qu. # query: normalized growth of entry OC(=Cc1nc2ccccc2nc1C=C(O)c1ccc(Cl)cc1)c1ccc(Cl)cc1
Ans. 0.989

Qu. Which value of normalized growth has been reported for CCCCN(C)C(=O)c1cc([N+](=O)[O-])cc2c1-c1ccc([N+](=O)[O-])cc1C2=C(C#N)C#N in the records?
Ans. 0.98

Qu. Which normalized growth value is on record for Cc1onc(-c2c(Cl)cccc2Cl)c1C(=O)NNc1c(Cl)cccc1Cl ?
Ans. 0.983

Qu. Need normalized growth of CCCCCCCCCCCC(=O)NOC(=O)c1c(-c2c(Cl)cccc2Cl)noc1C , thanks.
Ans. 0.991

Qu. # lookup: normalized growth of CCc1ccn2cc(Nc3ccccc3Cl)nc2c1
Ans. 0.983

Qu. Requested read-out: normalized growth. Entry: Cc1onc(-c2c(F)cccc2Cl)c1C(=O)ON=C1C2CC3CC(C2)CC1C3
Ans. 1.04

Qu. # input molecule: O=c1c2ccccc2[nH]c(=S)n1-c1cccc(C(F)(F)F)c1 ; wanted: its normalized growth
Ans. 0.889

Qu. # get_value(readout='normalized growth', item= CC(=O)Nc1ccc(S(=O)(=O)Nc2ccccc2Oc2ccc(Cl)cc2Cl)cc1 )
Ans. 0.999

Qu. # input molecule: Cc1onc(-c2c(Cl)cccc2Cl)c1C(=O)NC(C)(C)CC(C)(C)C ; wanted: its normalized growth
Ans. 0.995

Qu. normalized growth lookup needed for Cc1c(C(=O)N(Cc2ccccc2)Cc2cccs2)cnn1-c1ccc(Cl)cc1 , thanks.
Ans. 0.973

Qu. Look at this molecule and give its reported normalized growth. O=C(/C=C/Sc1nc2ccccc2s1)c1ccc(Cl)cc1
Ans. 0.983

Qu. Consider the molecule shown here: N#CC(C#N)=Cc1ccc(-c2ccccc2C(F)(F)F)o1 What is its recorded normalized growth?
Ans. 0.935

Qu. Entry ClC1=C(C=Nc2ccc(Cl)cc2)CSc2ccc(Cl)cc21 : reported normalized growth = ?
Ans. 0.93

Qu. May I ask what normalized growth has been recorded for Cc1nc(-c2ccc(S(=O)(=O)Nc3ccc(Br)cc3Cl)s2)cs1 ?
Ans. 0.937

Qu. Need normalized growth, item Cc1c(-c2ccnn2C(=O)c2ccco2)cnn1-c1ccccc1
Ans. 0.94

Qu. Fill blank: measured normalized growth of the molecule Cc1ccc(NS(=O)(=O)c2ccc(Cl)cc2)c(N=Cc2cc(Cl)cc(Cl)c2O)c1 is ____.
Ans. 0.959
